assayReadout: melting point

Please report the recorded melting point for `CC(C)(C)NC(=O)[C@@H]1C[C@@H](O)CN1C(=O)OC(C)(C)C` .
192 to 193 °C

Likewise for CC(=O)C1CCC2C3CCC4CC(O)C(F)CC4(C)C3C(=O)CC12C (stereo unspecified) ?
174 to 178 °C

Likewise for CCC1CC(=O)c2c(NC(=O)C(=O)O)ccc(C)c21 (stereo unspecified) ?
176 to 177 °C

Likewise for COc1ccc2cc(C(C)C(=O)O)ccc2c1Br (stereo unspecified) ?
149 to 151 °C

Likewise for COc1ccccc1C1(O)C(O)CCC2CNCC21 (stereo unspecified) ?
168 °C

Likewise for `CS(=O)(=O)Nc1c(Br)cnn1-c1ccc(C(F)(F)F)cc1Cl` ?
63 to 65 °C

====

assayReadout: melting point

Please report the recorded melting point for `N#CC(C#N)=C1N(CCCCN2CCCCC2)CCN1CCCN1CCCCC1` .
88 to 90 °C

Likewise for `O=C(O)CNc1cc(C(=O)O)nc2ccccc12` ?
260 to 261 °C

Likewise for `Cc1ccccc1-n1nnc2cnc3ccccc3c21` ?
140 to 142 °C

Likewise for `COc1cc(C)cc(-c2n[nH]cc2-c2ccnc(SC)n2)c1` ?
143 °C

Likewise for `CCOC(N)=C(C#N)C(N)=S` ?
170 to 171 °C

Likewise for `CS(=O)(=O)c1ccc(-n2cncc2-c2ccccc2F)cc1` ?
188 to 189 °C

Likewise for CCCCOc1ccc2c(c1)C(N(C)S(C)(=O)=O)C(O)C(C)(C)O2 (stereo unspecified) ?
138 to 140 °C

Likewise for `O=S(=O)(NCc1ccncc1)c1ccc(-c2ccccc2Cl)cc1` ?
138 to 141 °C

Likewise for `CC(=O)NC(=O)c1cn(Cc2ccccc2)nc1OCc1ccc(OCc2nc(-c3ccco3)oc2C)cc1` ?
193 to 194 °C

Likewise for `O=C1CN[C@@H](c2ccccc2)[C@@H](c2ccccc2)O1` ?
139 °C

Likewise for `Cc1c(CC(=O)O)cc2ccc(F)cc2c1Cc1ccc(S(=O)(=O)C(F)(F)F)cc1` ?
200 to 201 °C

Likewise for `CCCCS(=O)(=O)Nc1nc(CN2CCN(C(c3ccccc3)c3ccccc3)CC2)cs1` ?
185 to 187 °C

Likewise for `N#Cc1cc(-c2ccoc2)c2ccc(OCc3cncc(-c4ccccc4)c3)cc2c1` ?
138 to 140 °C

Likewise for `COc1ccc2cn[nH]c(=O)c2c1` ?
228 to 229 °C

Likewise for `O=C(O)c1ccc2c(c1)S(=O)(=O)c1ccccc1C2=O` ?
285 to 287 °C

Likewise for `CN(C)C(=O)C(c1ccccc1)(c1ccccc1)c1ncc[nH]1` ?
202 °C

Likewise for `COc1ccc(S(=O)(=O)c2ccnc(C)c2C)cc1` ?
84 to 85 °C

Likewise for `CC[C@H]1[C@H](O)CC(=O)N1c1ccc(C#N)c(Cl)c1` ?
118 to 120 °C

Likewise for `CC(=O)ONC(=O)N1CCC(=Cc2cc(C(C)(C)C)c(O)c(C(C)(C)C)c2)C1=O` ?
165 to 166 °C

Likewise for `Cc1c(OCC(F)(F)F)ccnc1CSc1nc2cc(CO)ccc2[nH]1` ?
153 to 155 °C

Likewise for COc1cc(F)c(C(O)C#N)cc1OC (stereo unspecified) ?
112 to 114 °C

Taken from a melting point compilation (Tetko et al.; mined from patent text by program, amines drawn as free bases though some values may be those of a salt).
